CONDITIONS USED: in water, 342.45 K

| SMILES REPRESENTATION | solubility (mole fraction) |
| --- | --- |
| O=C(O)c1ccc(C(=O)O)o1 | 0.000672 |

====

CONDITIONS USED: in water, 313.25 K

| SMILES REPRESENTATION | solubility (mole fraction) |
| --- | --- |
| O=C(O)c1ccc(C(=O)O)o1 | 0.000195 |

====

CONDITIONS USED: in ethanol, 299.35 K

| SMILES REPRESENTATION | solubility (mole fraction) |
| --- | --- |
| O=C(O)c1ccc(C(=O)O)o1 | 0.00298 |

====

CONDITIONS USED: in acetic acid, 332.75 K

| SMILES REPRESENTATION | solubility (mole fraction) |
| --- | --- |
| O=C(O)c1ccc(C(=O)O)o1 | 0.000656 |

====

CONDITIONS USED: in ethanol, 311.25 K
MEASUREMENT LABEL: solubility (mole fraction)

| SMILES REPRESENTATION | MEASUREMENT LABEL | ASSAY RESULT |
| --- | --- | --- |
| O=C(O)c1ccc(C(=O)O)o1 | solubility (mole fraction) | 0.004 |

====

CONDITIONS USED: in water, 303.55 K

| SMILES REPRESENTATION | solubility (mole fraction) |
| --- | --- |
| O=C(O)c1ccc(C(=O)O)o1 | 0.000141 |

====

CONDITIONS USED: in ethanol, 319.25 K

| SMILES REPRESENTATION | solubility (mole fraction) |
| --- | --- |
| O=C(O)c1ccc(C(=O)O)o1 | 0.00478 |

====

CONDITIONS USED: in methanol, 321.15 K
MEASUREMENT LABEL: solubility (mole fraction)

| SMILES REPRESENTATION | MEASUREMENT LABEL | ASSAY RESULT |
| --- | --- | --- |
| O=C(O)c1ccc(C(=O)O)o1 | solubility (mole fraction) | 0.00661 |

====

CONDITIONS USED: in acetic acid, 342.45 K
MEASUREMENT LABEL: solubility (mole fraction)

| SMILES REPRESENTATION | ASSAY RESULT |
| --- | --- |
| O=C(O)c1ccc(C(=O)O)o1 | 0.000874 |

====

CONDITIONS USED: in methanol, 309.35 K
MEASUREMENT LABEL: solubility (mole fraction)

| SMILES REPRESENTATION | ASSAY RESULT |
| --- | --- |
| O=C(O)c1ccc(C(=O)O)o1 | 0.00484 |

====

CONDITIONS USED: in methanol, 303.35 K

| SMILES REPRESENTATION | solubility (mole fraction) |
| --- | --- |
| O=C(O)c1ccc(C(=O)O)o1 | 0.00408 |

====

CONDITIONS USED: in acetic acid, 303.55 K

| SMILES REPRESENTATION | solubility (mole fraction) |
| --- | --- |
| O=C(O)c1ccc(C(=O)O)o1 | 0.000242 |

====

CONDITIONS USED: in ethanol, 340.55 K

| SMILES REPRESENTATION | solubility (mole fraction) |
| --- | --- |
| O=C(O)c1ccc(C(=O)O)o1 | 0.00814 |
